System: TF1 JAK2 V617F STAT5 reporter
PROTOCOL TEXT: Cellular TF1 STAT5 assay (luciferase reporter), JAK2 V617F
Assay type: cell-based
CONDITION CONTEXT: TF1 JAK2 V617F, read-out: Cell PD TF1 V617F STAT5 (IC50)
Method: Selected compounds of the present disclosure were tested in a Cellular TF1 STAT3 or STAT5 assay, to measure the degree of JAK2-mediated STAT3 or STAT5 phosphorylation, respectively. TF1 cells (immortalized erythroleukemia line) expressing either wildtype or V617F mutant JAK2 with a luciferase reporter were used. […] Cell plating: Cells were counted using Vi-Cell XR, then cells were spun down and resuspended in growth media to 200,000 cells/ml. […]
Assignment: determine reported IC50 for the given molecules.

Known IC50 results, listed for orientation:
MOLECULE	TARGET ENTITY	REPORTED
CNC(=O)c1nnc(NC(=O)C2CC2)cc1Nc1cccc(-c2cc(C3CN(Cc4cnn(C)c4)C3)nn2C)c1OC [Compound 175]	TF1 JAK2 V617F STAT5 reporter	5000 to 100000 nM
CNC(=O)c1nnc(NC(=O)C2CC2)cc1Nc1cccc(-c2cn(C3CN(Cc4cccc(C#N)n4)C3)nn2)c1OC [Compound 183]	TF1 JAK2 V617F STAT5 reporter	50 to 500 nM
CNC(=O)c1nnc(NC(=O)C2CC2)cc1Nc1cccc(-c2ccc(C(=O)N(C)Cc3ccc(N(C)C)nc3)nc2)c1OC [Compound 93]	TF1 JAK2 V617F STAT5 reporter	500 to 5000 nM
CNC(=O)c1nnc(NC(=O)C2CC2)cc1Nc1cccc(-c2cnn(C3CN(Cc4csc(C)n4)C3)c2)c1OC [Compound 126]	TF1 JAK2 V617F STAT5 reporter	50 to 500 nM
CNC(=O)c1nnc(NC(=O)C2CC2)cc1Nc1cccc(-c2cnn(C3CN(C(C)c4ccccn4)C3)c2)c1OC (racemic) [Compound 127]	TF1 JAK2 V617F STAT5 reporter	500 to 5000 nM

Dear reader, for each entry below, please note its IC50.
1. CNC(=O)c1nnc(NC(=O)C2CC2)cc1Nc1cc(F)cc(-c2cnn(C3CN(Cc4ccn(C)n4)C3)c2)c1OC [Compound 155]
2. CNC(=O)c1nnc(NC(=O)C2CC2)cc1Nc1cccc(-c2cc(C3CN(Cc4cc(C#N)ccn4)C3)nn2C)c1OC [Compound 177]

Result block:
1. 500 to 5000 nM
2. 5000 to 100000 nM
